Taken from patent US7897602B2.

- tgt: VEGFR2 kinase (Homo sapiens, UniProt P35968)
- Construct: recombinant N-terminal 6×His-tagged VEGFR2 kinase domain construct expressed by baculovirus; 6xHis (N); made in house
- Sequence (P35968 834-1162 limits assumed): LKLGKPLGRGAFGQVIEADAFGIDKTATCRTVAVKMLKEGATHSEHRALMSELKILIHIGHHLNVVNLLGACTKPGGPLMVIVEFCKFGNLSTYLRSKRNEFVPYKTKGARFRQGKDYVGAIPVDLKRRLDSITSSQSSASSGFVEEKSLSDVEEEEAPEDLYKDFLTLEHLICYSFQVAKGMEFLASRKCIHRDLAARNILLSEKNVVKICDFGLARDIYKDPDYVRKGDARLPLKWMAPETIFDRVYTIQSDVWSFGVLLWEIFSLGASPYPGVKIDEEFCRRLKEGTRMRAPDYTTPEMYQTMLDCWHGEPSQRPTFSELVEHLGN
- protocol_notes: VEGFR2 kinase assay (33P incorporation into Poly(Glu-Tyr))
- Type: biochemical
- condition_context: 500 nM test compound; read-out: Inhibition at 500 nM (%) VEGFr-2
endpoint_name: inhibition at 0.5 µM (%)

Example entries and their recorded answers appear below.
O=C(O)CCc1c(/C=C2\C(=O)Nc3cc(-c4cc5ccccc5s4)ccc32)[nH]c2c1C(=O)CCC2 [DCB-70080]
76.9
CN1CCN(C(=O)CCc2c(/C=C3\C(=O)Nc4ccc(S(=O)(=O)N5CCCC5)cc43)[nH]c3c2C(=O)CCC3)CC1 [DCB-70120]
17.6

a = CCOC(=O)CCc1c(/C=C2\C(=O)Nc3ccc(F)cc32)[nH]c2c1C(=O)CCC2 [DCB-70053]
b = CCOC(=O)CCc1c(/C=C2\C(=O)Nc3ccc(NC(=O)Nc4ccc(C)cc4)cc32)[nH]c2c1C(=O)CCC2 [DCB-70091]
stdin: Please let me know which one, a or b , has a lower measured inhibition at 0.5 µM value. Output the label that corresponds to your choice.
stdout: b
